tested_system: human SIRPαBIT (huSIRPαBIT), protein antigen (human) (UniProt P78324)
Sequence (P78324 31-370): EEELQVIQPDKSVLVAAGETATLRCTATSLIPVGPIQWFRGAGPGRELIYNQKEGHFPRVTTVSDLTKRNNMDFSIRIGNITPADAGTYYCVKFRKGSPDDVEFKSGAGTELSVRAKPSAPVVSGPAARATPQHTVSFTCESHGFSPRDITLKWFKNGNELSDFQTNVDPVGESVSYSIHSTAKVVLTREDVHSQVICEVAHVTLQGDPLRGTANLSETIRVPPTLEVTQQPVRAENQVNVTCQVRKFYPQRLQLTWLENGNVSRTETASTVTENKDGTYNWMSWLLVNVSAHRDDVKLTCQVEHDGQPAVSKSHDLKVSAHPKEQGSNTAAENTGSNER
protocol_details: ELISA, antigen coated
readout_type: EC50 (µg/mL)
Give the number; µg/mL is assumed, so skip it.

binder	reading
anti-SIRPα antibody 5 (antibody, human IgG1, kappa, L234A L235A, V domains shown, Rabbit variable regions on human IgG1 LALA / kappa) VH: QSVEESGGRLVTPGTPLTLTCTVSGFSLSSYVMGWFRQAAGKGLEYIGYINADGSPYYATWVNGRFTISKTPTTMDLKINSPTTEDTATYFCARVGPLGVDYFNIWGPGTLVTVSL VL: DIVMTQTPASVEAAVGGTVTIKCQASQSINRYLTWYQQKPGQRPKLLIYYASTLESGVPSRFEGSGSGTDYTLTISDLESADAATYYCQSYYYISRTYAFGGGTEVVVKR	0.021
anti-SIRPα antibody 6 (antibody, human IgG1, kappa, L234A L235A, V domains shown, Rabbit variable regions on human IgG1 LALA / kappa) VH: QSVEESGGRLVTPGTPLTLTCTVSGIDLSSYTMTWVRQAPGKGLEWIGIIYAGGSTAYASWAKGRFTISKTSTTVDLKITSPTTEDTATYFCARSSSDGYDYFNIWGPGTLVTVSL VL: GVVMTQTPSSVSAAVGGTVTINCQASQSIGSWLAWYQQKPGQPPKLLIYQASKLASGVPSRFSGRGSGTHFTLTISDVQSDDAATYYCQQTVTAASNVDNAFGGGTEVVVKR	0.02
anti-SIRPα antibody 2 (antibody, human IgG1, kappa, L234A L235A, V domains shown, Rabbit variable regions on human IgG1 LALA / kappa) VH: QSVEESGGRLVTPGTPLTLTCTVSGFSLSNYAMHWVRQAPGKGLEWIGIIYTGGATSYATWAKGQFTISKTSTTVDLKITSPTTEDTATYFCARGDRDGYAYFNIWGPGTLVTVSL VL: QIVMTQTPFSVSAVVGGTVTIKCQASHNIGSWLAWYQQKPGQRPKLLIYDASTLASGVSSRFKGSGSGTEFTLTISGVESADAATYYCQQGYGISYVHNVFGGGTEVVVKR	0.027
anti-SIRPα antibody 1 (antibody, human IgG1, kappa, L234A L235A, V domains shown, Rabbit variable regions on human IgG1 LALA / kappa) VH: QSVEESGGRLVTPGTPLTLTCTVSGIDLSSYAMSWVRQAPGKGLEWIGIISSGGITYYASWAKGRFTISKTSTTVDLKIPSPTTEDTATYFCARSLWAASNYYMALWGPGTLVTVSS VL: AIKMTQTPASVSAAVGGTVSINCQASEDIESYLAWYQQKPGQPPKLLIYRASTLASGVSSRFKGSGSGTQFTLTISDLESADAATYYCLGDYYSSSGDTGAFGGGTEVVVKR	0.021

--- query ---
The binder listed as anti-SIRPα antibody 4 (antibody, human IgG1, kappa, L234A L235A, V domains shown, Chimeric: rabbit variable regions on human IgG1 LALA / kappa; also called chimeric antibody 4) VH: QSVEESGGRLGTPGTPLTLTCTVSGFSLSSYVMGWFRQAPGKGLEYIGIISSSGSPYYASWVNGRFTISKTSTTMDLKMNSPTTEDTATYFCARVGPLGVDYFNIWGPGTLVTVSL VL: DIVMTQTPSSVEAAVGGTVTIKCQAGQSINSYLAWYQQKPGQRPKLLIYYASTLESGVPSRFKGSGSGTDYTLTISDLESADAATYYCQSWHYISRSYAFGGGTEVVVKR has a reported EC50 of 0.025
